Each record here notes measured pIC50.
- measurement target: MARK4 (UniProt Q96L34)
- Sequence (whole entry): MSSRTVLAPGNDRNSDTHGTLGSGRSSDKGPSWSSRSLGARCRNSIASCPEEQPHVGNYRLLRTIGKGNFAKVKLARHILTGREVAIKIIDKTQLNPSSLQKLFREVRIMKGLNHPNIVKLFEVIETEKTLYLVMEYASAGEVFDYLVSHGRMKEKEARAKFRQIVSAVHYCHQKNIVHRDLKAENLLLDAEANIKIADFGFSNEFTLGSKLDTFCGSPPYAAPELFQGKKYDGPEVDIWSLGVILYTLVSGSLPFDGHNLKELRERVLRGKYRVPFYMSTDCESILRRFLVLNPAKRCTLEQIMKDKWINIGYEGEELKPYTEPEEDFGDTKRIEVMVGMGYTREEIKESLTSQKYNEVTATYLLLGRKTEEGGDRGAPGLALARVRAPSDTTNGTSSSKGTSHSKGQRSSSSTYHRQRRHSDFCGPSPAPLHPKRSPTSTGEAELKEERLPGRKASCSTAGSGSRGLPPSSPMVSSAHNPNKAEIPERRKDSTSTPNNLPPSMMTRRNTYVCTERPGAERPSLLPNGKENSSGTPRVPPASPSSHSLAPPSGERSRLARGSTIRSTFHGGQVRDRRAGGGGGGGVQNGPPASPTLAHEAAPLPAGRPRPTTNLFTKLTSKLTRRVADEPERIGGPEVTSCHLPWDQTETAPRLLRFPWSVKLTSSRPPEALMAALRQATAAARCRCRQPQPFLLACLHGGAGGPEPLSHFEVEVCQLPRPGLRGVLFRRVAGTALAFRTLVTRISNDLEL
- test: pIC50, kinobeads binding competition
- test settings: cell material: Lysate mix

Solved entries:
What pIC50 value was documented for this molecule, Cc1cc(Nc2cc(C(=O)NCCNC(=O)OC3CC/C=C/CCC3)nc(N3CCN(Cc4ccc(S(=O)(=O)F)cc4)CC3)n2)n[nH]1 (stereo unspecified) ?
< 4.52

Try this molecule next: O=C(NCCNC(=O)c1cc(Nc2cc(C3CC3)[nH]n2)nc(N2CCN(Cc3ccc(S(=O)(=O)F)cc3)CC2)n1)OC1CC/C=C/CCC1 (stereo unspecified)
< 4.52

Consider next the molecule C#CCNC(=O)c1cc(Nc2cc(C3CC3)[nH]n2)nc(N2CCN(Cc3ccc(S(=O)(=O)F)cc3)CC2)n1 in the same way.
4.81

More entries:
Quick one: pIC50 for CCNC(=O)c1cc(Nc2cc(C)[nH]n2)nc(N2CCN(Cc3ccc(S(=O)(=O)F)cc3)CC2)n1 ?
< 4.52

Same read-out for CCNC(=O)c1cc(Nc2cc(C3CC3)[nH]n2)nc(N2CCN(Cc3ccc(S(=O)(=O)F)cc3)CC2)n1 ?
4.93

Also check C#CCNC(=O)c1cc(Nc2cc(C)[nH]n2)nc(N2CCN(Cc3ccc(S(=O)(=O)F)cc3)CC2)n1
< 4.52

###

- measurement target: UniProt Q99683
- Sequence (whole entry): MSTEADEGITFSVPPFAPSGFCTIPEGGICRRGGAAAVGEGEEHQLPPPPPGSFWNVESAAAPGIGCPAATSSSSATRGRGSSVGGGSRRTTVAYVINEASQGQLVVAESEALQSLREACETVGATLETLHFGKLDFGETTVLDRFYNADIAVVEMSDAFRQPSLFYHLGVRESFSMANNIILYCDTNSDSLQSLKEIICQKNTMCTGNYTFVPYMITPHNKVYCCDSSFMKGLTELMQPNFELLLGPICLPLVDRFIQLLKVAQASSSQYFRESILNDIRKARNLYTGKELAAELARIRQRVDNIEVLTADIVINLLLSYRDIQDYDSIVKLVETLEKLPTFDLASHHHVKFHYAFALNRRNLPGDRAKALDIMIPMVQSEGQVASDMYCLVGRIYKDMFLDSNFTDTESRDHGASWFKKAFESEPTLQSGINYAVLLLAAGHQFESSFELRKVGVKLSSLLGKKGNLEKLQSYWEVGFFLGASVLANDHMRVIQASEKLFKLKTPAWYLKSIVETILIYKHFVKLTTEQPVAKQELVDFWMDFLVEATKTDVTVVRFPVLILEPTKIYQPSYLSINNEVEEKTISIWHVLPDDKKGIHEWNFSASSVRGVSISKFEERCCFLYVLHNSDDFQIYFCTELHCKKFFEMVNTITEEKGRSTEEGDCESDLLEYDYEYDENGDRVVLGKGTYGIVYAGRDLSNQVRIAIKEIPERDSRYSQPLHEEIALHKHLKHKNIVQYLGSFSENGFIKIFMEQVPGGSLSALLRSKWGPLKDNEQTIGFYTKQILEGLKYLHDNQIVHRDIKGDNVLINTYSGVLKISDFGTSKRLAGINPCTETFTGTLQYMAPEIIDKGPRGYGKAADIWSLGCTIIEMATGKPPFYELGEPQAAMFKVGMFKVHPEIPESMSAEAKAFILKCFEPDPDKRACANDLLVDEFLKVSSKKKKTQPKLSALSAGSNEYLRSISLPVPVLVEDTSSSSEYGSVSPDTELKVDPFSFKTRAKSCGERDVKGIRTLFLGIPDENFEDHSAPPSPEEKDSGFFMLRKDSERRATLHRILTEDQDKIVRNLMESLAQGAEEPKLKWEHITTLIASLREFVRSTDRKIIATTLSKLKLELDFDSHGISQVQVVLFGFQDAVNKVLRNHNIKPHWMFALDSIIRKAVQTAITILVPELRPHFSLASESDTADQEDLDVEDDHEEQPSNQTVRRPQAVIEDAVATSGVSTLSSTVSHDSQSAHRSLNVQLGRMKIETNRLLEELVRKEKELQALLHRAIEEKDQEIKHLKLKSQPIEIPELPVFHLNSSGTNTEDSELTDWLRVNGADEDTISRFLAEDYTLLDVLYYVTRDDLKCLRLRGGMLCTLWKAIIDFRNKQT
- test: pIC50, kinobeads binding competition
- test settings: cell material: Lysate mix
endpoint name: pIC50

Completed entries (count: 3):
# returns recorded pIC50 (system: UniProt Q99683) for O=C(NCCNC(=O)c1cc(Nc2cc(C3CC3)[nH]n2)nc(N2CCN(Cc3ccc(S(=O)(=O)F)cc3)CC2)n1)OC1CC/C=C/CCC1 (stereo not given)
< 4.52

Same lookup for Cc1cc(Nc2cc(C(=O)NCCNC(=O)OC3CC/C=C/CCC3)nc(N3CCN(Cc4ccc(S(=O)(=O)F)cc4)CC3)n2)n[nH]1 (stereo not given) , please.
< 4.52

Repeat for the following molecule: CCNC(=O)c1cc(Nc2cc(C)[nH]n2)nc(N2CCN(Cc3ccc(S(=O)(=O)F)cc3)CC2)n1
4.69

Others:
Request - read-out pIC50 | tested on UniProt Q99683 | molecule C#CCNC(=O)c1cc(Nc2cc(C3CC3)[nH]n2)nc(N2CCN(Cc3ccc(S(=O)(=O)F)cc3)CC2)n1
< 4.52

And the next one, CCNC(=O)c1cc(Nc2cc(C3CC3)[nH]n2)nc(N2CCN(Cc3ccc(S(=O)(=O)F)cc3)CC2)n1 ?
< 4.52
